- TARGET: delF508-CFTR (Homo sapiens, UniProt P13569, DEL508-508)
- Construct: expressed in transfected cells
- Sequence (P13569 with tags, fused parts or gaps DEL508-508): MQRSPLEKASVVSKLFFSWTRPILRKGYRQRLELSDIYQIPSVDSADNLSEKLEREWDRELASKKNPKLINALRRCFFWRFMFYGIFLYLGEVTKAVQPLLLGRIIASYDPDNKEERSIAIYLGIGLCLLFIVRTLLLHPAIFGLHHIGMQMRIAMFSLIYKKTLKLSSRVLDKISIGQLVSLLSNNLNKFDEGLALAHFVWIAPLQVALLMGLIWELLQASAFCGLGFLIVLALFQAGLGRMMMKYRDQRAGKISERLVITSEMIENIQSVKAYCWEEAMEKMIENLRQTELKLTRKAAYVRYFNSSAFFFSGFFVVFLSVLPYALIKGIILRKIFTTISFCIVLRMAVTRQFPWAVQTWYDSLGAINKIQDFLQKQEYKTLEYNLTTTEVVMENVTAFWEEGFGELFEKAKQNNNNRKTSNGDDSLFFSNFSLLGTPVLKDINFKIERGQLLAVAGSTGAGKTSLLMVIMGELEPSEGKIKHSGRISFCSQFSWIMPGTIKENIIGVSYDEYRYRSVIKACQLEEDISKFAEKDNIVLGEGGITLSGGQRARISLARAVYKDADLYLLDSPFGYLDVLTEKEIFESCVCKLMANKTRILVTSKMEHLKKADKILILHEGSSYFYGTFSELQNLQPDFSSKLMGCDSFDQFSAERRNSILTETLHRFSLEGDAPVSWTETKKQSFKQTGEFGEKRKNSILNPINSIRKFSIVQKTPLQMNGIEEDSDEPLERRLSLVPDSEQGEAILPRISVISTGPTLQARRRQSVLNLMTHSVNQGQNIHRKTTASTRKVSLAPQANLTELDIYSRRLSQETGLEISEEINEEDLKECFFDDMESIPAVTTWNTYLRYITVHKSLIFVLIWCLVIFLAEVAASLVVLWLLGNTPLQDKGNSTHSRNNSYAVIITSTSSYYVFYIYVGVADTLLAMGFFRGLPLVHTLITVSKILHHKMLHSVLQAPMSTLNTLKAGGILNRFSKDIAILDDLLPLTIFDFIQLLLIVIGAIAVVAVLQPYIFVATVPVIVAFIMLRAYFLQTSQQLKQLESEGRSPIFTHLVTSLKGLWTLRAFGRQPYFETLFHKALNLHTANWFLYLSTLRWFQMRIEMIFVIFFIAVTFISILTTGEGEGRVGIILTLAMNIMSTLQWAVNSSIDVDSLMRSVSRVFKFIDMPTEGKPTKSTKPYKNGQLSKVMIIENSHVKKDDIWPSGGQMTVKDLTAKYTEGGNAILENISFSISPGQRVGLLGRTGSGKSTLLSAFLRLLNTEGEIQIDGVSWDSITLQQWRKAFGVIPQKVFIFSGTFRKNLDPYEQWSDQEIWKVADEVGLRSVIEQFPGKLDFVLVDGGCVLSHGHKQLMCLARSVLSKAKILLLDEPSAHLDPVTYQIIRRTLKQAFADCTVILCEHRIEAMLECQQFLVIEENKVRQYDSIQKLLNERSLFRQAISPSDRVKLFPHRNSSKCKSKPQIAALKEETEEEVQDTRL
- ASSAY_PROCEDURE: Measurement of delF508-CFTR-HRP surface expression in CFBE41o- cells
- Type: cell-based
- SETTINGS: HRP-tagged delF508-CFTR surface expression, CFBE41o- cells, 24 h with compound, 10-point curve, highest concentration 10 μM
pEC50: −log10 of the molar value.
QUANTITY_MEASURED: pEC50

Previously resolved entries follow.
COMPOUND	TARGET	QUANTITY_MEASURED	OBSERVED_VALUE
O=C1c2ccccc2C(=O)N1CCCN1CCCCCc2ccccc2-c2nc(ccc2C(F)(F)F)NS(=O)(=O)c2cccc1n2 [Compound 133]	delF508-CFTR (Homo sapiens, UniProt P13569, DEL508-508)	pEC50	6.34
Cc1ccc2nc1-c1ccccc1CCCCCN(CCCC(=O)O)c1cccc(n1)S(=O)(=O)N2 [Compound 72]	delF508-CFTR (Homo sapiens, UniProt P13569, DEL508-508)	pEC50	5.61
O=S1(=O)Nc2ccc(C(F)(F)F)c(n2)-c2ccccc2CCCCCN(CCN2CC(O)C2)c2cccc1n2 [Compound 124]	delF508-CFTR (Homo sapiens, UniProt P13569, DEL508-508)	pEC50	5.78
O=C(O)CCCN1CCOCCCc2ccccc2-c2nc(ccc2C(F)(F)F)NS(=O)(=O)c2cccc1n2 [Compound 88]	delF508-CFTR (Homo sapiens, UniProt P13569, DEL508-508)	pEC50	5.68

A: CN1CCCCCCN(C)c2ncccc2-c2nc(ccc2C(F)(F)F)NS(=O)(=O)c2cccc1n2 [Compound 8]
B: CC(C)(CO)CN1CCCCCc2ccccc2-c2nc(ccc2C(F)(F)F)NS(=O)(=O)c2cccc1n2 [Compound 27]
C: NCCN1CCCCCc2ccccc2-c2nc(ccc2C(F)(F)F)NS(=O)(=O)c2cccc1n2 [Compound 132]
D: O=S1(=O)Nc2ccc(C(F)(F)F)c(n2)-c2cc(F)ccc2CCCCCN(CCCO)c2cccc1n2 [Compound 26]
E: CC(C)(CO)CN1CCCCCCc2ccccc2-c2nc(ccc2C(F)(F)F)NS(=O)(=O)c2cccc1n2 [Compound 28]
Ordering criterion: pEC50; begin with the maximum. Reply format: the labels, ordered as requested.
E, B, A, D, C

P: O=S1(=O)Nc2ccc(C(F)(F)F)c(n2)-c2cc(F)ccc2CCCCCNc2cccc1n2 [Compound 31]
Q: COC(=O)CN1CCCCCCc2ccccc2-c2nc(ccc2C(F)(F)F)NS(=O)(=O)c2cccc1n2 [Compound 61]
# return whichever of P and Q has the smaller pEC50 Answer by stating the label of the chosen item.
P
(P: 6.21, Q: 6.43)

P: O=C(O)CCCN1CCCOCc2ccccc2-c2nc(ccc2C(F)(F)F)NS(=O)(=O)c2cccc1n2 [Compound 102]
Q: O=S1(=O)Nc2ccc(C(F)(F)F)c(n2)-c2ccccc2CCCCCCN(CCCO)c2cccc1n2 [Compound 21]
Param metric = pEC50; output whichever of P , Q has the minimum value. Please indicate the selected item by its label.
P

I: CC(C)(CN1CCCCCc2ccc(F)cc2-c2nc(ccc2C(F)(F)F)NS(=O)(=O)c2cccc1n2)C(=O)O [Compound 96]
II: O=S1(=O)Nc2ccc(C(F)(F)F)c(n2)-c2ccccc2CCCCCN(CCN2C[C@H](O)[C@@H](O)C2)c2cccc1n2 [Compound 123]
Among I and II , which shows a numerically higher pEC50 result? Choose, then provide that item's label.
I

###

- TARGET: delF508-CFTR (Homo sapiens, UniProt P13569, DEL508-508)
- Construct: expressed in transfected cells
- ASSAY_PROCEDURE: Measurement of delF508-CFTR-HRP surface expression in CFBE41o- cells
- Type: cell-based
- SETTINGS: HRP-tagged delF508-CFTR surface expression, CFBE41o- cells, 24 h with compound, 10-point curve, highest concentration 10 μM
- Description: Measurement of deIF508-CFTR-HRP Surface Expression in CFBE41o-Cells This assay quantifies the cell surface expressions of the mutant CFTR channel using an extracellular HRP tag. […] The median activity for the lowest concentration of the compounds on each assay plate was calculated and this value was used to normalize the signal for each well on the respective plate. […] The median value was determined and used to calculate compound activities as described below. […]
QUANTITY_MEASURED: EC50 (nM)

Some molecules with recorded EC50:
STRUCTURE_SMILES	QUANTITY_MEASURED	UNIT_TEXT	OBSERVED_VALUE
CCOC(=O)CN1CCCCOc2ccccc2-c2nc(ccc2C(F)(F)F)NS(=O)(=O)c2cccc1n2	EC50	nM	335
COc1ccc2nc1-c1ccccc1CCCCCN(CCCC(=O)O)c1cccc(n1)S(=O)(=O)N2	EC50	nM	2430
Cc1ccc2nc1-c1ccccc1CCCCCN(CCCCO)c1cccc(n1)S(=O)(=O)N2	EC50	nM	1620
O=S1(=O)Nc2ccc(C(F)(F)F)c(n2)-c2cccnc2OCCCCCNc2cccc1n2	EC50	nM	1270
O=S1(=O)Nc2ccc(C(F)(F)F)c(n2)-c2ccccc2CCCCCCCCCN(CCCCO)c2cccc1n2	EC50	nM	219

A: O=S1(=O)Nc2ccc(Cl)c(n2)-c2cccnc2NCCCCCNc2cccc1n2
B: O=S1(=O)Nc2ccc(C(F)(F)F)c(n2)-c2ccccc2CCCCCCN(CCCCO)c2cccc1n2
Which numeric EC50 is bigger, that of A or that of B ? Identify your selection by its label.
A

1: O=S1(=O)Nc2ccc(Cl)c(n2)-c2ccccc2CCCCCCOc2cccc1n2
2: O=S1(=O)Nc2ccc(C(F)(F)F)c(n2)-c2cccnc2NCCCCCNc2cccc1n2
3: O=C(O)CCCN1CCCCCCc2ccccc2-c2nc(ccc2C(F)(F)F)NS(=O)(=O)c2cccc1n2
Ordering: ascending EC50. As an answer, provide the labels arranged in the order called for.
3, 1, 2
(3: 421 nM, 1: 1060 nM, 2: 1680 nM)

a: O=C(O)CCCN1CCCCCCc2ccc(F)cc2-c2nc(ccc2C(F)(F)F)NS(=O)(=O)c2cccc1n2
b: O=C(O)CCOCCN1CCCCCc2ccccc2-c2nc(ccc2C(F)(F)F)NS(=O)(=O)c2cccc1n2
c: O=S1(=O)Nc2ccc(Cl)c(n2)-c2ccccc2CCCCCN(CCCO)c2cccc1n2
d: O=C(O)CCCCN1CCCCc2ccccc2-c2nc(ccc2C(F)(F)F)NS(=O)(=O)c2cccc1n2
Hey, can you sort those molecules up there by EC50, smallest first? Return the labels ranked in the requested order, please.
c, a, b, d

I: O=C(O)CCN1CCCCCc2ccccc2-c2nc(ccc2Cl)NS(=O)(=O)c2cccc1n2
II: O=C(O)CCN1CCCCCc2ccc(F)cc2-c2nc(ccc2C(F)(F)F)NS(=O)(=O)c2cccc1n2
Field: entry with larger EC50 (options I / II ). The response must carry the label of the picked entry.
I
(I: 1180 nM, II: 747 nM)

###

- TARGET: delF508-CFTR (Homo sapiens, UniProt P13569, DEL508-508)
- Construct: expressed in transfected cells
- ASSAY_PROCEDURE: Measurement of delF508-CFTR-HRP surface expression in CFBE41o- cells
- Type: cell-based
- SETTINGS: HRP-tagged delF508-CFTR surface expression, CFBE41o- cells, 24 h with compound, 10-point curve, highest concentration 10 μM
QUANTITY_MEASURED: EC50 (nM)

MOLECULE	EC50, nM
CC(C)(CN1CCCCCCc2ccccc2-c2nc(ccc2C(F)(F)F)NS(=O)(=O)c2cccc1n2)C(=O)O	230
O=C(O)C1(CN2CCCCCc3ccccc3-c3nc(ccc3C(F)(F)F)NS(=O)(=O)c3cccc2n3)CC1	566
O=C(O)CCCCN1CCCCCCCc2ccccc2-c2nc(ccc2C(F)(F)F)NS(=O)(=O)c2cccc1n2	84

a: O=S1(=O)Nc2ccc(C(F)(F)F)c(n2)-c2ccccc2CCC(O)CNc2cccc1n2 (stereo not shown)
b: O=S1(=O)Nc2ccc(C(F)(F)F)c(n2)-c2ccccc2CCCCCCCCCN(CCCO)c2cccc1n2
Returns: the argument ( a or b ) having the larger EC50. Reply briefly: the label of your chosen item.
a
(a: 3300 nM, b: 361 nM)

a: O=C(O)CCN1CCCCCCCCc2ccccc2-c2nc(ccc2C(F)(F)F)NS(=O)(=O)c2cccc1n2
b: O=S1(=O)Nc2ccc(Cl)c(n2)-c2ccccc2CCCCOc2cccc1n2
c: O=S1(=O)Nc2ccc(C(F)(F)F)c(n2)-c2cc(F)ccc2OCCCCN(CCCCO)c2cccc1n2
d: O=C(O)CCCN1CCCCCc2ccccc2-c2nc(ccc2Cl)NS(=O)(=O)c2cccc1n2
e: O=S1(=O)Nc2ccc(C(F)(F)F)c(n2)-c2cccnc2O[C@H]2CCC[C@H](CCC2)Oc2cccc1n2
Could you please sort these 5 entries by EC50 from high to low? Write out the labels following the order that was asked for.
b, d, c, a, e
(b: 2600 nM, d: 1600 nM, c: 690 nM, a: 351 nM, e: 226 nM)
